Taken from PubChem BioAssay (NCI).

Tested on: HL-60(TB) leukemia
Test method notes: NCI tumour cell line growth inhibition, 48 h
Measure name: TGI (µM)
Respond numerically; units are µM and should not be typed.

# annotated cases, reported TGI shown
* CCC1(O)CC(OC2CC(N(C)C)C(OC3CC(O)C(OC4CCC(=O)C(C)O4)C(C)O3)C(C)O2)c2c(O)c3c(c(O)c2C1C(=O)OC)C(=O)c1cccc(O)c1C3=O (centres undefined) | 0.0496
* COc1cc([C@@H]2c3cc4c(cc3C(OC3O[C@@H]5COC(C)O[C@H]5[C@H](O)[C@H]3O)C3COC(=O)[C@@H]32)OCO4)cc(OC)c1O (some centres undefined) | 1.53
* COC(=O)C(Cc1nc2ccccc2[nH]c1=O)C(=O)C(=O)Nc1cc(C(F)(F)F)ccc1Cl (centres undefined) | 54.2
* C[N+](C)([O-])CCCNc1ccnc2cccc([N+](=O)[O-])c12 | 54.1
* O=[N+]([O-])c1cc(F)c2cccnc2c1O | 8.12

In plain terms, Cn1ncc(-c2ccc3c(=O)[nH]nc(CN)c3c2)c1-c1c(F)cc2ccccc2c1C#N has a documented TGI of 18.2

In plain terms, CC(C)N(C(C)C)P(OCCC#N)OC1CC(n2cnc3c(=O)[nH]cnc32)OC1COC(=O)NCCCCCCNC(=O)OC(C)(C)c1ccc(-c2ccccc2)cc1 (centres undefined) has a documented TGI of 36.4

In plain terms, O=C(Nc1ccc(I)cc1F)c1cc(I)ccc1O has a documented TGI of 1.66

----------
Tested on: HS 578T breast
Test method notes: NCI tumour cell line growth inhibition, 48 h
Measure name: TGI

# annotated cases, reported TGI shown
• COc1cc2c(c(OC)c1OC)-c1ccc(SC)cc1C(=O)CC2 = > 100 µM
• Nc1ccc(-c2nc3ccccc3s2)cc1Br = > 100 µM
• O=C(O)CC(O)(C(=O)O)C(O)C(=O)O (configuration not stated) = 867 µM
• O=C(Nc1ccc(I)cc1F)c1cc(I)ccc1O = 3.95 µM
• N=C(c1cccs1)C1(N2CCCCC2)CCCCC1 = > 100 µM

In plain terms, O=[N+]([O-])c1cc(Cl)ccc1S(=O)(=O)N1CCCc2cc(Cl)ccc21 has a documented TGI of > 100 µM

In plain terms, N#Cc1cccc(OCc2ccccc2COc2cccc(C#N)c2)c1 has a documented TGI of 70.5 µM

In plain terms, CCCn1c(N)c(C(=O)CNc2ccc(I)cc2)c(=O)[nH]c1=O has a documented TGI of > 100 µM

In plain terms, N#Cc1c2c(c(-c3cccs3)n(C3OC(CO)C(O)C(O)C3O)c1=S)CCc1ccccc1-2 (configuration not stated) has a documented TGI of > 100 µM

In plain terms, C#CCCCC(=O)N(C(=O)CS(=O)CC)c1ccccc1 (configuration not stated) has a documented TGI of > 100 µM

In plain terms, COc1cc(/C=N\O)nc(-c2ccccn2)c1 has a documented TGI of > 100 µM

In plain terms, O=C(CC(=O)c1ccccc1)c1ccccc1 has a documented TGI of > 100 µM

----------
Tested on: HCC-2998 colon
Test method notes: NCI tumour cell line growth inhibition, 48 h
Measure name: TGI

• CC(=O)N(CN1C(=O)CCC1C(=O)O)c1ccccc1Cl (centres undefined) = > 100 µM
• COc1ccccc1NCC(=O)Nn1c(C)nc2ccc(S(=O)(=O)Nc3ccccc3OC)cc2c1=O = > 100 µM
• NS(=O)(=O)c1ccc(NC(=O)COC(=O)c2cccc3c(=O)c4ccccc4[nH]c23)cc1 = > 100 µM
• Cc1ncc([N+](=O)[O-])n1CCNC(=O)CCCCCn1ccnc1[N+](=O)[O-] = > 100 µM
• COCCNC1CCC2(SCCS2)c2[nH]c3ccccc3c21 (centres undefined) = > 100 µM
• Oc1c(CN2CCOCC2)cc(COCc2ccccc2)c2cccnc12 = > 100 µM
• Cc1sc2ncn(Cc3ccc(Cl)c(Cl)c3)c(=O)c2c1C = 30.1 µM
• N#Cc1c2c(c(-c3cccs3)n(C3OC(CO)C(O)C(O)C3O)c1=S)CCc1ccccc1-2 (centres undefined) = > 100 µM

# TGI measured on HCC-2998 colon for item CCOC(=O)/N=c1/nc(N(C)C)ss1 = > 100 µM

# TGI measured on HCC-2998 colon for item O=C1c2ccccc2-c2c1c1ccccc1c(=O)n2-c1ccccc1 = > 100 µM

# TGI measured on HCC-2998 colon for item CC(=O)O[C@H]1C=CC23OC(=O)[C@]1(C)[C@H]2[C@H](C(=O)O)C12CC(=O)[C@@](CO)(CC[C@H]13)C2 = > 100 µM

# TGI measured on HCC-2998 colon for item Cc1nnc(-c2ccc(-c3nc4ccccc4o3)cc2)o1 = > 100 µM

# TGI measured on HCC-2998 colon for item CC(C)c1cccc(C(C)C)c1OS(=O)(=O)NC(=O)OC(C(F)(F)F)C(F)(F)F = > 100 µM

# TGI measured on HCC-2998 colon for item Cc1ccc(NC(=O)CCC(=O)C(C#N)c2ccccc2)cc1C (centres undefined) = > 100 µM

# TGI measured on HCC-2998 colon for item CCCCOc1ccc(/C=N/Nc2cc(C)nc3ccc(Cl)cc23)cc1 = 3.38 µM

# TGI measured on HCC-2998 colon for item CCCCCCNC(=O)Oc1ccc(/C(=C(\C)c2ccccc2)c2ccc(OCCN(CC)CC)cc2)cc1 = 8.16 µM

# TGI measured on HCC-2998 colon for item C=CC1(c2ccc(OC)cc2)OCCCO1 = > 100 µM

# TGI measured on HCC-2998 colon for item CN(C)CC1CCCC/C1=N/OC(=O)c1ccc(Cl)c(Cl)c1 (centres undefined) = > 100 µM

# TGI measured on HCC-2998 colon for item CCOC(=O)c1ccccc1-c1c2ccc(=[N+](C)C)cc-2oc2cc(N(C)C)ccc12 = 13.9 µM

# TGI measured on HCC-2998 colon for item Oc1ccc(Cl)cc1-c1cc(-c2ccc(F)cc2)n[nH]1 = 5.95 µM

# TGI measured on HCC-2998 colon for item O=[N+]([O-])c1cc(Cl)ccc1S(=O)(=O)N1CCCc2cc(Cl)ccc21 = > 100 µM

# TGI measured on HCC-2998 colon for item Cc1ccc2c(c1)C(=O)c1c-2n(CCCN=[N+]=[N-])c(=O)c2cc([N+](=O)[O-])ccc12 = > 100 µM

# TGI measured on HCC-2998 colon for item Cc1cc(O)c(C(C)C)cc1N=Cc1ccccc1O = 14.7 µM

# TGI measured on HCC-2998 colon for item Brc1cccc[n+]1-c1ccc2cc(-[n+]3ccccc3Br)ccc2c1 = > 100 µM

----------
List of TGI values.
Tested on: A498 renal
Test method notes: NCI tumour cell line growth inhibition, 48 h

# annotated cases, reported TGI shown
- OC(COc1cccc2ccccc12)CN1CCN(c2ccccc2Cl)CC1 (configuration not stated): 24.9 µM
- CC(=O)N1CCN(CCOc2ccc(C3CCN(C4=Nn5c(nnc5C(F)(F)F)CC4)CC3)cc2)CC1: > 89.8 µM
- COc1cccc(-c2cc(=O)c3cc(Cl)cnc3[nH]2)c1: > 100 µM
- CN1CCN(CCOc2ccc(-c3cnc4c(-c5ccc(F)cc5)cnn4c3)cc2)CC1: 4.89 µM
- O=[As]c1ccc(C(=O)c2ccc(Oc3ccccc3)cc2)cc1 (configuration not stated): 0.295 µM

In plain terms, C[N+](C)(N)c1nc(N)c(C#N)c(C#N)c1C#N has a documented TGI of > 10 µM

In plain terms, Nc1ccc(-c2nc3ccccc3s2)cc1Br has a documented TGI of > 32.5 µM

----------
Test system: OVCAR-4 ovarian
Test method notes: NCI tumour cell line growth inhibition, 48 h
List of TGI values.

# annotated cases, reported TGI shown
• CC(C)N(C(C)C)P(OCCC#N)OC1CC(n2cnc3c(=O)[nH]cnc32)OC1COC(=O)NCCCCCCNC(=O)OC(C)(C)c1ccc(-c2ccccc2)cc1 (stereo not given) = 38.2 µM
• C#CCN(Cc1nc2cc(C(F)(F)F)ccc2nc1-c1ccccc1)c1ccc(F)c(F)c1 = > 100 µM
• O=C(Oc1cccc(Cl)c1)c1cc2cc(CCl)ccc2oc1=O = > 100 µM
• CC1(C)C2CCC(N)(C2)C1O (stereo not given) = > 100 µM

In plain terms, COc1ccccc1NS(=O)(=O)c1ccc2ncn(NS(=O)(=O)c3ccc(Cl)cc3)c(=O)c2c1 has a documented TGI of > 100 µM

In plain terms, COc1ccc(C[C@@H]2OC3(C=CC(=O)C=C3)O[C@H]2Cc2ccc(OC)cc2)cc1 has a documented TGI of 2.14 µM

----------
Test system: SN12C renal
Test method notes: NCI tumour cell line growth inhibition, 48 h
Measure name: TGI (µM)
Respond numerically; units are µM and should not be typed.

* COc1cc2c(cc1OCCCCCOc1cc3c(cc1OC)C(=O)N1CCC[C@H]1CN3)N=C[C@@H]1CCCN1C2=O | 18.7

# TGI measured on SN12C renal for item CCN(CC)CCNc1ccc2ncn3c4cc(=O)ccc4c(O)c1c23 = 15.7

# TGI measured on SN12C renal for item COc1ccc2c(c1)CC[C@@H]1[C@@H]2CC[C@]2(C)C=C(/C=C/C(=O)c3ccccc3)C[C@@H]12 = 33.4

# TGI measured on SN12C renal for item OC(COc1cccc2ccccc12)CN1CCN(c2ccccc2Cl)CC1 (centres undefined) = 25.4
